FYI, the data here is from patent US20100021885A1.

# Max (maximum scalar product observed over the multiple time points) per record follows
- System: livers from treated male Sprague-Dawley rats
- experimental-context: male, rat, in vivo
The answer should be written as a number, with no unit following it.

[ask] May I ask what Max (maximum scalar product observed over the multiple time points) has been recorded for CN1C(=O)CN=C(c2ccccc2)c2cc(Cl)ccc21 [DIAZEPAM] ?
[reply] 0.52

[ask] Field entry: ClC(Cl)Cl [chloroform, reference compound]
[reply] 1.50

[ask] Field entry: NN [hydrazine, reference compound]
[reply] −0.10

[ask] Field entry: CN(C)[C@@H]1C(O)=C(C(N)=O)C(=O)[C@@]2(O)C(O)=C3C(=O)c4c(O)cccc4[C@@](C)(O)[C@H]3C[C@@H]12 [TETRACYCLINE]
[reply] −0.40

[ask] Field entry: CC(C)(C)CC(C)(C)c1ccc(OCCOCC[N+](C)(C)Cc2ccccc2)cc1 [BENZETHONIUM CHLORIDE]
[reply] −0.13

[ask] Field entry: CCN(CC)N=O [N-nitrosodiethylamine, reference compound]
[reply] −1.41

[ask] Field entry: C[C@]12CC[C@H]3[C@@H](CCC4=CC(=O)CC[C@@]43C)[C@@H]1CC[C@@H]2O [TESTOSTERONE]
[reply] 0.45

----------
# Day 1 (scalar product) per record follows
- System: livers from treated male Sprague-Dawley rats
- experimental-context: male, rat, in vivo
The answer should be written as a number, with no unit following it.

Some entries whose results are on file:
>  <compound>
NN [hydrazine, reference compound]

>  <reported>
−0.10

$$$$
>  <compound>
CN1C(=O)CN=C(c2ccccc2)c2cc(Cl)ccc21

>  <reported>
−1.40

$$$$
>  <compound>
CN(C)[C@@H]1C(O)=C(C(N)=O)C(=O)[C@@]2(O)C(O)=C3C(=O)c4c(O)cccc4[C@@](C)(O)[C@H]3C[C@@H]12

>  <reported>
−0.40

$$$$

[ask] # returns recorded Day 1 (scalar product) (system: livers from treated male Sprague-Dawley rats) for `C[C@]12CC[C@H]3[C@@H](CCC4=CC(=O)CC[C@@]43C)[C@@H]1CC[C@@H]2O`
[reply] 0.25

[ask] Field entry: CC(C)(C)CC(C)(C)c1ccc(OCCOCC[N+](C)(C)Cc2ccccc2)cc1 [BENZETHONIUM CHLORIDE]
[reply] −0.13

[ask] Field entry: ClC(Cl)Cl [chloroform, reference compound]
[reply] 1.50

[ask] Field entry: CCN(CC)N=O [N-nitrosodiethylamine, reference compound]
[reply] −2.17

----------
- Tested on: livers from treated male Sprague-Dawley rats
- experimental-context: male, rat, in vivo
quantity: Day 5 (scalar product)
The answer should be written as a number, with no unit following it.

>  <compound>
ClC(Cl)Cl [chloroform, reference compound]

>  <Day 5 (scalar product)>
0.27

$$$$
>  <compound>
C[C@]12CC[C@H]3[C@@H](CCC4=CC(=O)CC[C@@]43C)[C@@H]1CC[C@@H]2O

>  <Day 5 (scalar product)>
−0.63

$$$$
>  <compound>
CN1C(=O)CN=C(c2ccccc2)c2cc(Cl)ccc21

>  <Day 5 (scalar product)>
0.52

$$$$
>  <compound>
NN [hydrazine, reference compound]

>  <Day 5 (scalar product)>
−1.48

$$$$
>  <compound>
CC(C)(C)CC(C)(C)c1ccc(OCCOCC[N+](C)(C)Cc2ccccc2)cc1 [BENZETHONIUM CHLORIDE]

>  <Day 5 (scalar product)>
−1.68

$$$$
>  <compound>
CN(C)[C@@H]1C(O)=C(C(N)=O)C(=O)[C@@]2(O)C(O)=C3C(=O)c4c(O)cccc4[C@@](C)(O)[C@H]3C[C@@H]12

>  <Day 5 (scalar product)>
−1.31

$$$$

[ask] May I ask what Day 5 (scalar product) has been recorded for CCN(CC)N=O [N-nitrosodiethylamine, reference compound] ?
[reply] −1.41
